Test system: COLO 205 colon
Test Description: NCI tumour cell line growth inhibition, 48 h
TGI vs 20 µM: at or above is Criterion met, below is Criterion not met.

Worked cases, answers included:
{"Compound": "COc1ccc(C(=O)C#Cc2c[nH]c(=O)[nH]c2=O)cc1", "Class Assignment": "Criterion met"}
{"Compound": "COc1ccc(NC(=O)CC(=O)n2nc(C)c(N=Nc3ccccc3C(=O)O)c2C)cc1", "Class Assignment": "Criterion met"}
{"Compound": "O=C(/C(=C\\I)c1ccccc1)c1ccccc1", "Class Assignment": "Criterion not met"}
{"Compound": "COCCOCCOCc1n(Cc2ccc3ccccc3n2)c2ccccc2[n+]1Cc1ccc2ccccc2n1", "Class Assignment": "Criterion not met"}
{"Compound": "Nc1nc(N)c2nc3c(nc2n1)CCCCCCCCCC3", "Class Assignment": "Criterion met"}
{"Compound": "COc1cc2c(c(OC)c1OC)-c1ccc(N=NC(N)=S)c(=O)cc1[C@@H](NC(C)=O)CC2", "Class Assignment": "Criterion not met"}
{"Compound": "O=c1c(Cc2ccc(Cl)cc2)nnc2sc(-c3ccc(-c4ccc(Cl)cc4Cl)o3)nn12", "Class Assignment": "Criterion met"}
{"Compound": "Cc1ccc2nc(-c3ccc(C(C)(C)C)cc3)oc(=O)c2c1", "Class Assignment": "Criterion met"}

Task item: Could you please find out whether O=C(Nc1ccc(S(=O)(=O)/N=c2\ncccn2C(=O)C(C(F)(F)F)C(F)(F)F)cc1)C(C(F)(F)F)C(F)(F)F has TGI that meets 20 µM or exceeds it?
Reply: Criterion met

Task item: Could you please find out whether CC(=O)/C=C/c1ccc(OCc2ccc(Cl)cc2)cc1 has TGI that meets 20 µM or exceeds it?
Reply: Criterion met

Task item: Could you please find out whether NCCN1C(=O)c2ccccc2C1c1ccc(Cl)cc1 (stereo not drawn) has TGI that meets 20 µM or exceeds it?
Reply: Criterion met

Task item: Could you please find out whether C#CC(O)/C=C/CCCCCCC#CC/C=C\CC#CCCCCCCCCC(O)C#C (stereo not drawn) has TGI that meets 20 µM or exceeds it?
Reply: Criterion not met

Task item: Could you please find out whether CC(=O)Nc1n[n+]([O-])c2cc(C)ccc2[n+]1[O-] has TGI that meets 20 µM or exceeds it?
Reply: Criterion not met

Task item: Could you please find out whether CCCCNc1ccc(Nc2ccccc2)cc1 has TGI that meets 20 µM or exceeds it?
Reply: Criterion not met
